Measured inhibition of growth at 20 µM of individual entries
System: HeLa
Experiment: Antiproliferative activity against human HeLa cells assessed as growth inhibition at 20 uM viability after 72 hrs by SRB assay relative to control
Assay type: functional
Conditions: read-out: GI
propertyName: inhibition of growth at 20 µM

CCNC(=O)Nc1ccc2oc(-c3ccc4nc(N)sc4c3)nc2c1 ... 6.8%
Cc1nc2cc(N)ccc2s1 ... 6.1%
Nc1ccc2oc(-c3ccccc3F)nc2c1 ... 42.4%
Nc1ccc2nn(-c3ccccc3)nc2c1 ... 53%
C[S+]([O-])c1ccc2nc(N)sc2c1 (stereo unspecified) ... 9.1%
Nc1ccc2nc(-c3ccccc3)oc2c1 ... -0.7%
FC(F)(F)c1ccc(-c2nc3ccccc3s2)nn1 ... 9.7%
CC[n+]1ccccc1-c1nc2ccccc2s1 ... 2.1%
Cc1nc(-c2nc3ccccc3s2)n[nH]1 ... 6.6%
Nc1nc2ccc([N+](=O)[O-])cc2s1 ... 6%
Nc1ccc2nc(N)sc2c1 ... 6.9%

These data points were gathered from ChEMBL document CHEMBL4765411.
